- Subject of test: Arachidonate 5-lipoxygenase (Cavia porcellus)
- Method: In vitro inhibitory activity against 5-lipoxygenase by reduction of 5-hydroxyeicosatetraenoic acid (5-HETE) formed in guinea pig polymorphonuclear leukocytes (PMNs).
In plain terms, low IC50, meaning strictly below 0.4 µM, gives Met, and everything else gives Not met.

                      smiles_representation  assigned_label
0    NC(=O)N(O)CC1=Cc2cc(OCc3ccccc3)ccc2OC1         Not met
1  CCOC(=O)CNC(=O)N(O)CC1=Cc2cc(Oc3ccccc3)ccc2OC1             Met
2  C=CCNC(=O)N(O)CC1=Cc2cc(Oc3ccccc3)ccc2OC1             Met
3     NC(=O)N(O)CC1=Cc2cc(-c3ccccc3)ccc2OC1             Met
4  CCCCNC(=O)N(O)CC1=Cc2cc(Oc3ccccc3)ccc2OC1             Met
5    NC(=O)N(O)CC1=Cc2cc(OCC3CCCCC3)ccc2OC1         Not met
6            NC(=O)N(O)CC1=Cc2cc(Br)ccc2OC1         Not met
